- system: Nuclear receptor subfamily 1 group I member 2 (Homo sapiens)
- run-description: ATG_PXR_TRANS: Attagene TRANS-FACTORIAL HepG2 Assay for human Pregnane X Receptor (PXR) (AID 2283008)
Inconclusive results are not listed. Activity calls are given as the source filed them. The calls were made as follows: active = hit-call score of the fitted dose curve at least 0.9, where 1 is the maximum; inconclusive = response in the unintended direction; inactive = score below 0.9.
Respond with a class label; see 1 = active, 0 = inactive

Study these solved cases before continuing.
> print(dat)
                                   compound  category.label
1                                     [Cu+]               0
2                CCC(=O)OC/C=C(\C)CCC=C(C)C               0
3  CCCCCCC(O)CCOC(C)=O (configuration not stated)               1
4  CC1=CCC(C(C)(C)O)CC1 (configuration not stated)               0
5  CC(O)COCC(C)O (configuration not stated)               0

Field: outcome | Entry: CCCCCCCC1CCCC1=O (configuration not stated)
1

Field: outcome | Entry: CC(=O)N(C)C
0

Field: outcome | Entry: O=S(=O)(O)CCCN1CCOCC1
0

Field: outcome | Entry: O=C1CCCCCCCCCCCC(=O)OCCO1
0

Field: outcome | Entry: C[N+](C)(C)CCO
0

Field: outcome | Entry: CCOC(=O)CC1(C)OCC(C)O1 (configuration not stated)
0

Field: outcome | Entry: Cc1cccc(O)c1
0

Field: outcome | Entry: O=C(C=Cc1ccccc1)OCCCc1ccccc1
1

Field: outcome | Entry: CN1CCc2cccc3c2[C@H]1Cc1ccc(O)c(O)c1-3
0

Field: outcome | Entry: CC=CC(=O)C1=C(C)C=CCC1(C)C
0

Field: outcome | Entry: C=CC(C)(CCC=C(C)C)OC(=O)CC (configuration not stated)
0

Field: outcome | Entry: O=S(=O)(O)c1cc(S(=O)(=O)O)c2c(N=Nc3ccccc3)c(O)ccc2c1
0

Field: outcome | Entry: O=C1Cc2ccccc2C1
1

Field: outcome | Entry: COC(=O)C(C)Oc1ccc(Oc2ncc(C(F)(F)F)cc2Cl)cc1 (configuration not stated)
1

Field: outcome | Entry: CCC(C)(C)C1CCC(OC)CC1 (configuration not stated)
1

Field: outcome | Entry: CC(=O)OC/C=C(C)/C=C/C=C(C)/C=C/C1=C(C)CCCC1(C)C
1

Field: outcome | Entry: CC(=O)OCC=C(C)CCC=C(C)CCC=C(C)C
1

Field: outcome | Entry: CCCCC(CC)COCCO (configuration not stated)
0

Field: outcome | Entry: CC(C)(O)CCc1ccccc1
0
